system: SNB-19; experiment: NCI tumour cell line growth inhibition, 48 h
Calls of active or inactive are those of the source. No stated cut-off is given here; in the data, active = GI50 up to about 1.1 µM and inactive = higher.
// reported GI50 for each item listed

Fill blank: measured GI50 of the molecule O=[N+]([O-])c1cc(Cl)cnc1Br is ____.
9.71 µM (inactive)

Fill blank: measured GI50 of the molecule CCOP(=O)(OCC)C(C(=O)OC)C(=O)C(=O)Nc1cccc(O)c1 (stereo unspecified) is ____.
> 100 µM (inactive)

Fill blank: measured GI50 of the molecule Cc1ccc(S(=O)(=O)c2c(N)n(CCN(C)C)c3nc4ccccc4nc23)cc1 is ____.
> 100 µM (inactive)

Fill blank: measured GI50 of the molecule CCn1cnc2c(=S)nc(N)[nH]c21 is ____.
> 100 µM (inactive)

Fill blank: measured GI50 of the molecule O=C(N/N=C/c1ccccc1O)c1ccccc1Nc1ccccc1C(=O)N/N=C/c1ccccc1O is ____.
3.41 µM (inactive)

Fill blank: measured GI50 of the molecule Cc1c2c3cc(O)ccc3nc-2n(C)c2ccccc12 is ____.
1.83 µM (inactive)

====

tested on: OVCAR-4; experiment: NCI tumour cell line growth inhibition, 48 h
Active and inactive are the calls of the source. No stated cut-off is given here; in the data, active = GI50 up to about 1.1 µM and inactive = higher.
Classes to choose from: t for active, f for inactive

Answered cases to consult:
>>> df
                                   molecule  class_name
0         COC(=O)[C@@H]1C=C[C@H](NC(C)=O)C1           f
1  C=C1C(O)C23CCC4C(C(=O)O)(C(=O)O)CC(OC5OC(CO)C(O)C(OC(=O)CCc6ccccc6)C5NC(=O)CC(C)C)CC4(C)C2CCC1(O)C3 (stereo not given)           f
2  N#Cc1c(N)c2c(c(-c3ccccc3)c1-c1ccccc1)C(=O)N(Nc1ccccc1)C2=O           f
3  CCC(=O)Oc1ccc2c(c1)c(=O)c1c(NCCCN(C)C)ccc3nnn2c31           t

State the result this test recorded for O=C(Nc1ccc(Br)cc1)C(=O)C(C(=O)c1ccccc1F)C1OC(=O)c2ccccc21 (stereo not given) .
f

====

// reported GI50 for each item listed
system: CAKI-1; test: NCI tumour cell line growth inhibition, 48 h
Activity calls are given as the source filed them. Cut-off read from the data, not from the text of the source: active = GI50 up to about 1.1 µM and inactive = higher.

COMPOUND	TARGET_OR_SYSTEM	RECORDED_ENDPOINT	ENDPOINT_RESULT
c1cnn(CN(Cn2cccn2)Cn2cccn2)c1	CAKI-1	GI50	> 100 µM (inactive)

Fill blank: measured GI50 of the compound CO[C@H]1C[C@@H]2CC[C@@H](C)[C@@](O)(O2)C(=O)C(=O)N2CCCC[C@H]2C(=O)O[C@H]([C@H](C)C[C@@H]2CC[C@@H](OC(=O)C(C)(CO)CO)[C@H](OC)C2)CC(=O)[C@H](C)/C=C(\C)[C@@H](O)[C@@H](OC)C(=O)[C@H](C)C[C@H](C)/C=C/C=C/C=C/1C is ____.
0.0142 µM (active)

Fill blank: measured GI50 of the compound O=C(O/N=C1/CCC/C1=C\c1ccccc1)c1ccc(Cl)c(Cl)c1 is ____.
> 100 µM (inactive)

Fill blank: measured GI50 of the compound CCOC(=O)Cn1c(=O)c2cc(C)cc3c(Cl)nc4c(OC)c(OC)cc1c4c32 is ____.
> 100 µM (inactive)

Fill blank: measured GI50 of the compound CC(C)(CN1CCCCC1)C(=O)CC(SCCS(=O)(=O)O)c1ccccc1 (stereo not drawn) is ____.
15.5 µM (inactive)

Fill blank: measured GI50 of the compound N=C(N)NS(=O)(=O)c1ccc(N/N=C2/CCOC2=O)cc1 is ____.
> 100 µM (inactive)

Fill blank: measured GI50 of the compound O=C1CC2CCC(C1)[S+]2[O-] (stereo not drawn) is ____.
> 100 µM (inactive)

Fill blank: measured GI50 of the compound O=C(NCCCN(CCCCN(CCCNC(=O)C(F)(F)F)Cc1ccccc1)Cc1ccccc1)C(F)(F)F is ____.
13.6 µM (inactive)

====

system: MDA-MB-231; assay: NCI tumour cell line growth inhibition, 48 h
Activity calls are given as the source filed them. Rule as the data show it: active = GI50 up to about 1.1 µM and inactive = higher.
Classes to choose from: 1 (yes) = active, 0 (no) = inactive

COMPOUND	CLASS_NAME
CCCCc1ccc(Nc2nc(Cl)c3c(ncn3C3CC(Oc4ccc(C)cc4)C(COc4ccc(C)cc4)O3)n2)cc1 (configuration not stated)	0 (no)
COC1OC(C)/C(=N/O)C2OC(C)(C)OC12 (configuration not stated)	0 (no)
O=C1OC(C2(O)OC(=O)c3ccccc32)c2ccccc21 (configuration not stated)	0 (no)
O=c1cc(NNc2ccc(F)cc2)[nH]c(=O)[nH]1	0 (no)
COC1(C)CCC(OS(C)(=O)=O)CO1 (configuration not stated)	0 (no)

State the result this test recorded for Cc1cc2c3ccccc3n(C)c2c2c1C(=O)C=CC2=O .
0 (no)

State the result this test recorded for CN(C)C(=N)/N=C(\N)Nc1cccc(Cl)c1 .
0 (no)

State the result this test recorded for CC1OC(OC2C(O[C@H]3CC[C@@]4(C)C(=CC[C@H]5[C@@H]6C[C@@H]7O[C@]8(CC[C@@H](C)CO8)[C@@H](C)[C@@H]7[C@@]6(C)CC[C@@H]54)C3)OC(CO)C(O)C2O)C(O)C(O)C1O (some centres not stated) .
0 (no)

State the result this test recorded for COC(=S)OC1CC(n2cnc3c(N)ncnc32)OC1CO[Si](C)(C)C(C)(C)C (configuration not stated) .
0 (no)

State the result this test recorded for COc1ccc(N2C(=O)[C@H]3[C@H]4CC(C(C)(C)C)CC[C@H]4c4c(n(C)c5ccccc45)[C@H]3C2=O)cc1 (some centres not stated) .
0 (no)

State the result this test recorded for COc1cccc2c1C(=O)c1c(O)c3c(c(O)c1C2=O)C[C@@](O)(C(=O)CO)C[C@@H]3OC1CC(N2CCOCC2)C(O)C(C)O1 (some centres not stated) .
1 (yes)

====

tested on: COLO 205; test: NCI tumour cell line growth inhibition, 48 h
Active and inactive are the calls of the source. No stated cut-off is given here; in the data, active = GI50 up to about 1.1 µM and inactive = higher.
Classes to choose from: T = active, F = inactive

COMPOUND	CLASS_NAME
Sc1nnc(NNc2ccccc2)n1Nc1ccccc1	T
NCCCOCC(=O)O	F
C[C@@H]1[C@@H]2[C@@H](C=C3C4CCC5Cc6nc7c(nc6C[C@@]5(C)C4C[C@H](O)[C@]32CO)CC2CCC3C4=C[C@H]5O[C@@]6(OC(C)(CO)C[C@@H]6O)[C@H](C)[C@@]5(O)[C@]4(C)[C@@H](O)CC3[C@]2(C)C7)O[C@]12CCC(C)(C)O2 (stereo partly drawn)	T
Cc1ccc2cc3cccc(C(=O)NCCN(C)C)c3nc2c1	T
COc1nc2cccc(C(O)c3ccccc3)c2nc1-c1ccccc1 (stereo not drawn)	F

State the result this test recorded for CN/C=C(/c1ccc(OC)cc1)C(O)c1ccc(OC)c(OC)c1 (stereo not drawn) .
F

State the result this test recorded for COC(=O)C(=O)C(C(=O)C=C(C)C)C(=O)C(=O)Nc1nc2ccc([N+](=O)[O-])cc2s1 (stereo not drawn) .
F

State the result this test recorded for C=C=C(C(=O)OC)[S+]([O-])c1ccc([N+](=O)[O-])cc1[N+](=O)[O-] (stereo not drawn) .
F

State the result this test recorded for CCCCCn1c(=O)c2c(=O)[nH][nH]c2c2ccccc21 .
F

State the result this test recorded for Cc1ccc2nc3ccccc3c(C3C4C(=O)N(c5ccc(Br)cc5Cl)C(=O)C4ON3C(C(N)=O)c3ccccc3)c2c1 (stereo not drawn) .
F

State the result this test recorded for CC12N=NN(c3ccc([N+](=O)[O-])cc3)C1(O)c1ccccc1C2=O (stereo not drawn) .
F

State the result this test recorded for N#Cc1c(N)nc2c3c1NC(=O)C(C(N)=O)C3c1ccccc1O2 (stereo not drawn) .
F

State the result this test recorded for Cc1cc(C)n2c(nc3ccccc32)c1C#N .
F

State the result this test recorded for CCCCCCCCCCC(O)C1CCC(C2CCC(C(O)CCCCC(O)CCCCCC(O)CC3=CC(C)OC3=O)O2)O1 (stereo not drawn) .
F

State the result this test recorded for CCc1ccccc1NC(=O)C(=O)CC(=O)c1sc(Nc2ccccc2Cl)nc1C .
F

State the result this test recorded for C1CC2=C(C1)[Se]C(=C1Sc3nsnc3S1)[Se]2 .
F

State the result this test recorded for CCCCCC(=O)Nc1nc(O)c2[nH]cnc2n1 .
F

State the result this test recorded for COC(=S)OC1CC(n2cnc3c(N)ncnc32)OC1CO[Si](C)(C)C(C)(C)C (stereo not drawn) .
F

====

test system: UACC-257; assay: NCI tumour cell line growth inhibition, 48 h
Active and inactive are the calls of the source. No stated cut-off is given here; in the data, active = GI50 up to about 1.1 µM and inactive = higher.
Classes to choose from: TRUE (active), FALSE (inactive)

Answered cases to consult:
COMPOUND	CLASS_NAME
CC1OC(OC2C(O[C@H]3CC[C@@]4(C)C(=CC[C@H]5[C@@H]6C[C@@H]7O[C@]8(CC[C@@H](C)CO8)[C@@H](C)[C@@H]7[C@@]6(C)CC[C@@H]54)C3)OC(CO)C(O)C2O)C(O)C(O)C1O (stereo partly drawn)	FALSE
CCCCn1c2c(n(CCCC)c1=S)-c1c(n(CCCC)c(=S)n1CCCC)S[Se][Se]S2	FALSE
COc1ccc(N[C@@H]2c3cc4c(cc3C(c3cc(OC)c(O)c(OC)c3)[C@H]3C(=O)OCC32)OCO4)cc1OC (stereo partly drawn)	FALSE
C#Cc1cccc(N2C(=O)CC(=P(c3ccccc3)(c3ccccc3)c3ccccc3)C2=O)c1	FALSE
CC(c1ccccc1)n1cncc1C(=O)NN1CCN(C)CC1 (stereo not drawn)	FALSE
COc1ccc(Cc2c(-c3ccc(C)cc3)n[nH]c(=O)c2C2C(=O)N(c3ccccc3)N=C2c2ccccc2)cc1 (stereo not drawn)	FALSE
O=c1[nH]nc(-c2ccccc2)c2[nH]c3c4ccccc4ccc3c12	FALSE
CCCCc1ccc(Nc2nc(Cl)c3c(ncn3C3CC(Oc4ccc(C)cc4)C(COc4ccc(C)cc4)O3)n2)cc1 (stereo not drawn)	FALSE
CC1OC(O[C@H]2CC[C@]3(C=O)[C@H]4CC[C@]5(C)[C@H](C6=CC(=O)OC6)CC[C@]5(O)[C@@H]4C=C[C@]3(O)C2)CC(O)C1O (stereo partly drawn)	TRUE
COCOCCCCCO[Si](C)(C)C(C)(C)C	FALSE

State the result this test recorded for O=C1c2ccccc2CC12Cc1ccc3c(c1C2)CCC3 (stereo not drawn) .
FALSE

State the result this test recorded for Cc1cc(O)c(C=O)c2c1C(=O)Oc1c(CO)c(O)c3c(c1O2)C(O)OC3=O (stereo not drawn) [SLAZINIC ACID] .
FALSE

State the result this test recorded for Oc1ccccc1/C=N/Nc1nnc2c3ccccc3c3ccccc3c2n1 .
FALSE
